FYI, the data here is from paper PMC6179041.

target: AChE (Electrophorus electricus, UniProt O42275); construct: purchased Sigma-Aldrich C3389; assay: biochemical; format: biochemical; conditions: 100 μM compound; mean ± SEM, tested three times; read-out: AChE inhibitory activity at 100 μM (%)
Sequence (O42275 24-633): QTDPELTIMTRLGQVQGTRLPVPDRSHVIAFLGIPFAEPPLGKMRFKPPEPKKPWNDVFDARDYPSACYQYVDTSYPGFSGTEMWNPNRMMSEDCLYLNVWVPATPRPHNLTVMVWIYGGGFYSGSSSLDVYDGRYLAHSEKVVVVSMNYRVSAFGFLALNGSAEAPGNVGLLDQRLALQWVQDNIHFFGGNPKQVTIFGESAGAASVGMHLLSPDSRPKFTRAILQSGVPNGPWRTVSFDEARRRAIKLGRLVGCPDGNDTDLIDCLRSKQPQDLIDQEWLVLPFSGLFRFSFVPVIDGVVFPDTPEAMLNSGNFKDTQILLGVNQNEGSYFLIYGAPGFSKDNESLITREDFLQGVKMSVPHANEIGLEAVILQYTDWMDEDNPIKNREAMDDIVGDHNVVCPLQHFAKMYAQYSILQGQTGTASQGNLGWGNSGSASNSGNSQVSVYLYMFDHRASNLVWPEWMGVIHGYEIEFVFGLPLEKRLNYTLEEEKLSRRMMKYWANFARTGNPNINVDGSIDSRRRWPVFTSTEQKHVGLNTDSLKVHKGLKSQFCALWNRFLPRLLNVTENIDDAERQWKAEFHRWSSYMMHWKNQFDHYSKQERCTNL
readout_type: inhibition at 100 µM (%)
Could you give me the number in %? Just the number is fine.

Query: Which inhibition at 100 µM is listed for CC(C)=CC=C1C(=O)Nc2ccccc21 [Compound 4] ?
Response: 61

Query: Could you share which inhibition at 100 µM value was measured for COC(=O)/C=C/c1ccc(O)c(OC)c1 [Compound 2, ferulic acid methyl ester] ?
Response: 58

Query: Which inhibition at 100 µM value is on record for CC(C)=CC=C1C(=O)N(C)c2ccccc21 [Compound 3] ?
Response: 53.8

Query: Which inhibition at 100 µM is listed for COc1ccc(/C=C/C(=O)OCC(=O)c2ccc(O)c(O)c2)cc1O [Compound 1, cimiciphenone] ?
Response: 65.4

###

Quick reference: IC50 of the listed items.
target: AChE (Electrophorus electricus, UniProt O42275); construct: purchased Sigma-Aldrich C3389; assay: biochemical; type: biochemical; settings: mean ± SEM, tested three times; read-out: AChE IC50
# output: number + unit

Example results:
| compound | readout_type | measured |
| --- | --- | --- |
| COC(=O)/C=C/c1ccc(O)c(OC)c1 [Compound 2, ferulic acid methyl ester] | IC50 | 52.4 µM |
| CC(C)=CC=C1C(=O)Nc2ccccc21 [Compound 4] | IC50 | 48 µM |
| CC(C)=CC=C1C(=O)N(C)c2ccccc21 [Compound 3] | IC50 | 95.8 µM |

Next compound, IC50 to be filled in.
Query: GET /values?readout=IC50&item= COc1ccc(/C=C/C(=O)OCC(=O)c2ccc(O)c(O)c2)cc1O [Compound 1, cimiciphenone]
Response: 16.7 µM

###

biological target: BuChE (Equus caballus, UniProt P81908); assay: biochemical; type: biochemical; settings: 100 μM compound; mean ± SEM, tested three times; read-out: BuChE inhibitory activity at 100 μM (%)
Sequence (P81908 whole entry): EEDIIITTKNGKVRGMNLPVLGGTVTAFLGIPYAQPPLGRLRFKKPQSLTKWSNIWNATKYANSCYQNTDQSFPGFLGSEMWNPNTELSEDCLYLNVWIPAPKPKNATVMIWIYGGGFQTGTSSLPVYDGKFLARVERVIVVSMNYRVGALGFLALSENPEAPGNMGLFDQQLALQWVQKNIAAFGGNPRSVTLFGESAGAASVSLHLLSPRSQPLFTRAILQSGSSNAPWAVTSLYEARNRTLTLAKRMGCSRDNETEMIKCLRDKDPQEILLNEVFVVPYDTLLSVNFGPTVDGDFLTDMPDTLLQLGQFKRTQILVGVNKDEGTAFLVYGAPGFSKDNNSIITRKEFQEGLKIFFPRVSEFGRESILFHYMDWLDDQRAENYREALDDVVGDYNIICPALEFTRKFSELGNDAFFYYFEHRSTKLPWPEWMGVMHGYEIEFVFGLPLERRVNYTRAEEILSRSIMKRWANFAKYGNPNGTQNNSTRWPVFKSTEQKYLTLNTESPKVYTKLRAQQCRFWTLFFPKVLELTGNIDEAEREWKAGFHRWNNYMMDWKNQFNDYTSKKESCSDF
readout_type: inhibition at 100 µM (%)
Report the value in % with no unit label.

Query: Which inhibition at 100 µM is reported for this molecule? CC(C)=CC=C1C(=O)N(C)c2ccccc21
Response: 88.7

###

biological target: AChE (Electrophorus electricus); construct: purchased Sigma-Aldrich C3389; assay: biochemical; assay type: biochemical; conditions: read-out: AChE inhibitory activity at 100 μM (%)
inhibition at 100 µM listing for selected compounds.
Your answer should be a plain number; it is taken to be in %.

| compound | target_or_system | units_text | inhibition at 100 µM |
| --- | --- | --- | --- |
| CC(=O)O[C@H]([C@H]1C[C@@H](C)[C@H]2[C@@](O)(O1)[C@H](O)[C@@]1(C)C3=CC[C@H]4C(C)(C)[C@@H](O)CC[C@@]45C[C@@]35CC[C@]21C)C(C)(C)O [Compound 12] | AChE (Electrophorus electricus) | % | 28 |
| C[C@@H]1C[C@H]2O[C@]3(O[C@@H]2C(C)(C)O)[C@H]1[C@@]1(C)CC[C@@]24C[C@@]25CC[C@H](O)C(C)(C)[C@@H]5CC=C4[C@]1(C)[C@H]3O [Compound 5, 7,8-didehydrocimigenol] | AChE (Electrophorus electricus) | % | 43.1 |
| CC1CC2OC3(OC2C(C)(C)O)C1C1(C)CCC24CC25CCC(OC2OCC(O)C(O)C2O)C(C)(C)C5CC=C4C1(C)C3O (stereo not shown) [Compound 16] | AChE (Electrophorus electricus) | % | 19 |

# ---- query compound ----
Query: Return inhibition at 100 µM measured with AChE (Electrophorus electricus) given this compound: C=C(C)C1OC23OC1CC(C)C2C1(C)CCC24CC25CCC(O)C(C)(C)C5CC=C4C1(C)C3O (stereo not shown) [Compound 9, 25-anhydro-7,8-didehydrocimigenol]
Response: 48.6

###

target: BuChE (Equus caballus, UniProt P81908); experiment: biochemical; format: biochemical; conditions: 100 μM compound; mean ± SEM, tested three times; read-out: BuChE inhibitory activity at 100 μM (%)
readout_type: inhibition at 100 µM (%)
Your answer is read as %, so omit the unit and give the number.

Query: Hi! What's the reported inhibition at 100 µM for COc1ccc(/C=C/C(=O)OCC(=O)c2ccc(O)c(O)c2)cc1O on BuChE (Equus caballus, UniProt P81908)?
Response: 13.6

Query: Item: CC(C)=CC=C1C(=O)Nc2ccccc21 Test system: BuChE (Equus caballus, UniProt P81908) Read-out: inhibition at 100 µM Value: ?
Response: 93.1

Query: Under BuChE (Equus caballus, UniProt P81908): inhibition at 100 µM value of COC(=O)/C=C/c1ccc(O)c(OC)c1 ?
Response: 62.3
